assay_notes: solvent given as SMILES
settings: in ClCCCl
Doc: threshold -4 kcal/mol (exclusive). Items with solvation free energy, 298 K beneath it return label 1; others return label 0.

{"structure_smiles": "ClC(Cl)(Cl)Cl", "cat": "label 1"}
{"structure_smiles": "CN(C)C(=O)Nc1ccc(Cl)cc1", "cat": "label 1"}
{"structure_smiles": "c1ccc2c(c1)-c1cccc3cccc-2c13", "cat": "label 1"}
{"structure_smiles": "Cc1ccc(C)cc1", "cat": "label 1"}
{"structure_smiles": "c1ccccc1", "cat": "label 1"}
{"structure_smiles": "CCBr", "cat": "label 0"}
{"structure_smiles": "S=C=S", "cat": "label 0"}
{"structure_smiles": "c1ccc2c(c1)Cc1ccccc1O2", "cat": "label 1"}
{"structure_smiles": "ClCCl", "cat": "label 0"}
{"structure_smiles": "O=C=O", "cat": "label 0"}
{"structure_smiles": "O=C(C(=O)c1ccccc1)c1ccccc1", "cat": "label 1"}
{"structure_smiles": "CCCC(C)C", "cat": "label 0"}
{"structure_smiles": "Cc1ccccc1", "cat": "label 1"}
{"structure_smiles": "O=O", "cat": "label 0"}
{"structure_smiles": "II", "cat": "label 1"}
{"structure_smiles": "COC(=O)OC", "cat": "label 1"}
{"structure_smiles": "C=CCCC", "cat": "label 0"}
{"structure_smiles": "CN(C)C(=O)Nc1ccc(Cl)c(Cl)c1", "cat": "label 1"}
{"structure_smiles": "CC(C)CC(C)C", "cat": "label 0"}
